test description: Stability in mouse plasma at 2 uM in presence of NADPH by LC-MS/MS analysis
quantity: half-life at 2 µM

Reported half-life at 2 µM ( "O=C(Cn1nnc(-c2ccncc2)c1-c1ccccc1)Nc1ccc(-c2ccccc2)cn1" ) = > 4 h
